Tested on: C. albicans (CA)
Experiment: Agar dilution test
Type: cell-based, Candida albicans
Set-up: key: (+) indicates growth; (+/−) indicates partial growth; (−) indicates no growth
Conditions: Test 1; Table 4; 24-48 hours
measure: Agar dilution test result (growth), CA

compound="Cc1occc(=O)c1O [ML 0.2%, maltol]" measured_value=−
compound="Cc1occc(=O)c1O [ML 0.05%, maltol]" measured_value=+
compound="Cc1occc(=O)c1O [ML 0.02%, maltol]" measured_value=+
compound="Cc1occc(=O)c1O [ML 0.08%, maltol]" measured_value=−
compound="Cc1occc(=O)c1O [ML 0.04%, maltol]" measured_value=+/−

Now, please, on to the next compound.
Exam item: Short answer please: Agar dilution test result (growth), CA, C. albicans (CA), entry Cc1occc(=O)c1O [ML 0.1%, maltol]
Marked response: −

###

Test system: P. aeruginosa (PA)
Assay: Agar dilution test
Type: cell-based, Pseudomonas aeruginosa
Parameters: key: (+) indicates growth; (+/−) indicates partial growth; (−) indicates no growth
Settings: Test 1; Table 4; 24-48 hours
measure: Agar dilution test result (growth), PA

Record excerpt, results attached:
compound="Cc1occc(=O)c1O [ML 0.08%, maltol]" measure="Agar dilution test result (growth), PA" measured_value=−
compound="Cc1occc(=O)c1O [ML 0.02%, maltol]" measure="Agar dilution test result (growth), PA" measured_value=+
compound="Cc1occc(=O)c1O [ML 0.2%, maltol]" measure="Agar dilution test result (growth), PA" measured_value=−
compound="Cc1occc(=O)c1O [ML 0.04%, maltol]" measure="Agar dilution test result (growth), PA" measured_value=+
compound="Cc1occc(=O)c1O [ML 0.05%, maltol]" measure="Agar dilution test result (growth), PA" measured_value=+/−

Now, please, on to the next compound.
Exam item: Record request: Agar dilution test result (growth), PA value, item Cc1occc(=O)c1O [ML 0.1%, maltol]
Marked response: −
